System: OVCAR-3 ovarian
Experiment: NCI tumour cell line growth inhibition, 48 h
QUANTITY: TGI

>>> result("CCOC(=O)C1=C(c2ccccc2)C12N(Cc1ccccc1)C(=O)C2(c1ccccc1)c1ccccc1 (stereo not given)")
"> 100 µM"
>>> result("COc1ccc(N2C(=O)C3c4[nH]c5ccccc5c4C4c5ccccc5CC4C3C2=O)cc1 (stereo not given)")
"> 100 µM"
>>> result("N#CCc1nc2cc(C(F)(F)F)ccc2s1")
"75.8 µM"
>>> result("CCN(CC)c1ccc2cc(C(N)=O)c(=Nc3ccc(F)cc3)oc2c1")
"> 100 µM"
>>> result("CCOC(=O)C(NC(=O)CC)(Nc1ccc(S(=O)(=O)Nc2ccc(OC)nn2)cc1)C(F)(F)F (stereo not given)")
"> 100 µM"
>>> result("COC1C(CO)OC(n2c3c(Cl)cccc3c3c4c(c5c6cccc(Cl)c6[nH]c5c32)C(=O)NC4=O)C(O)C1O (stereo not given)")
"6.67 µM"
>>> result("CN(/N=C/c1ccc(Cl)cc1)C1=NCCCCN1")
"> 100 µM"
>>> result("NC1=Nc2ccccc2Sc2nc3ccccc3n21")
"> 100 µM"
>>> result("CO[C@]12CC(=O)C3(C(C[C@H]4CC5CC[C@H]6C[C@@H](OC(C)=O)CC[C@]6(OC(C)=O)C5C[C@@]43C)C1)C1C[C@H]3[C@@H]4CC[C@H]5C[C@@H](OC(C)=O)CC[C@]5(OC(C)=O)[C@H]4CC[C@]3(C)C12 (stereo not given in full)")
"> 100 µM"
>>> result("O=C1/C(=C/c2ccc(Cl)cc2)CN(C(=O)CCN2CCC(=NO)CC2)C/C1=C\\c1ccc(Cl)cc1")
"1.78 µM"
